test: Color co-ordinates (L*a*b*) of printed samples; format: physicochemical; conditions: Table 6
resultType: L*a*b*-value: a*

[
  {
    "compound": "O=S(=O)(O)CCNc1ccc2cc(S(=O)(=O)O)c(N=Nc3ccc(N=Nc4ccc(S(=O)(=O)O)cc4)c4cc(S(=O)(=O)O)ccc34)c(O)c2c1 [Compound 4]",
    "endpointResult": 14.4
  },
  {
    "compound": "O=C(O)c1cccc(N=Nc2ccc(N=Nc3c(S(=O)(=O)O)cc4ccc(NCCS(=O)(=O)O)cc4c3O)c3cc(S(=O)(=O)O)ccc23)c1 [Compound 2]",
    "endpointResult": 2.0
  },
  {
    "compound": "O=C(O)c1cc(N=Nc2ccc(N=Nc3c(S(=O)(=O)O)cc4ccc(NCCS(=O)(=O)O)cc4c3O)c3ccc(S(=O)(=O)O)cc23)cc(C(=O)O)c1 [Compound 17]",
    "endpointResult": 2.6
  },
  {
    "compound": "O=S(=O)(O)CCNc1ccc2cc(S(=O)(=O)O)c(N=Nc3ccc(N=Nc4ccc(CS(=O)(=O)O)cc4)c4ccc(S(=O)(=O)O)cc34)c(O)c2c1 [Compound 8]",
    "endpointResult": 4.0
  },
  {
    "compound": "O=P(O)(O)Cc1ccc(N=Nc2ccc(N=Nc3c(S(=O)(=O)O)cc4ccc(NCCS(=O)(=O)O)cc4c3O)c3cc(S(=O)(=O)O)ccc23)cc1 [Compound 10]",
    "endpointResult": 1.5
  },
  {
    "compound": "O=C(O)c1cc(N=Nc2ccc(N=Nc3c(S(=O)(=O)O)cc4ccc(NCCS(=O)(=O)O)cc4c3O)c3cc(S(=O)(=O)O)ccc23)cc(C(=O)O)c1 [Compound 16]",
    "endpointResult": 3.4
  },
  {
    "compound": "O=S(=O)(O)CCNc1ccc2cc(S(=O)(=O)O)c(N=Nc3ccc(N=Nc4cc(Cl)c(S(=O)(=O)O)cc4Cl)c4ccc(S(=O)(=O)O)cc34)c(O)c2c1 [Compound 18]",
    "endpointResult": 4.4
  },
  {
    "compound": "O=S(=O)(O)CCNc1ccc2cc(S(=O)(=O)O)c(N=Nc3ccc(N=Nc4ccc(CS(=O)(=O)O)cc4)c4cc(S(=O)(=O)O)ccc34)c(O)c2c1 [Compound 9]",
    "endpointResult": 11.0
  },
  {
    "compound": "O=S(=O)(O)CCNc1ccc2cc(S(=O)(=O)O)c(N=Nc3ccc(N=Nc4ccc(S(=O)(=O)O)cc4)c4ccc(S(=O)(=O)O)cc34)c(O)c2c1 [Compound 3]",
    "endpointResult": 2.5
  },
  {
    "compound": "O=C(O)Cc1ccc(N=Nc2ccc(N=Nc3c(S(=O)(=O)O)cc4ccc(NCCS(=O)(=O)O)cc4c3O)c3cc(S(=O)(=O)O)ccc23)cc1 [Compound 7]",
    "endpointResult": 5.2
  },
  {
    "compound": "O=C(O)c1ccc(N=Nc2ccc(N=Nc3c(S(=O)(=O)O)cc4ccc(NCCS(=O)(=O)O)cc4c3O)c3cc(S(=O)(=O)O)ccc23)cc1Cl [Compound 15]",
    "endpointResult": 4.5
  },
  {
    "compound": "O=S(=O)(O)CCNc1ccc2cc(S(=O)(=O)O)c(N=Nc3ccc(N=Nc4ccc(CCO)cc4)c4ccc(S(=O)(=O)O)cc34)c(O)c2c1 [Compound 11]",
    "endpointResult": 4.2
  }
]

Data provenance is patent US5969115A.
